Recorded values, source paper PMC5564600.

Quick list: remaining activity at 1 µM per entry.
TEST TARGET: panel of 442 kinases (Homo sapiens, UniProt Q9UIK4)
Construct: purchased Ambit Biosciences (scanMAXX KINOMEscan)
Sequence (Q9UIK4 whole entry): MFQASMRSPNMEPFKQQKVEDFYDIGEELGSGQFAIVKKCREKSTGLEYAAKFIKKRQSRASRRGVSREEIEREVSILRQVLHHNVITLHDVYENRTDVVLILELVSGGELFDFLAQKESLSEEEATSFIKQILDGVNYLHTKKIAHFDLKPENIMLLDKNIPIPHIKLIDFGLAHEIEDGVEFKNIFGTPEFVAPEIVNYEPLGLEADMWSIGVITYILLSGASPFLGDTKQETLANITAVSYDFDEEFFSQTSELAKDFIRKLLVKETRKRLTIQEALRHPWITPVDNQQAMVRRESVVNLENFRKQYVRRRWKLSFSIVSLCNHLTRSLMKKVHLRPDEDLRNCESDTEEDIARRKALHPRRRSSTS
ASSAY OVERVIEW: biochemical
Assay type: binding
CONDITION NOTES: DAPK2; 1 µM; read-out: % of control at 1 µM
RECORDED METRIC: remaining activity at 1 µM (%)

| MOL | TEST TARGET | REPORTED MEASUREMENT |
| --- | --- | --- |
| COc1ncc(-c2ccc3nccc(-c4ccnnc4)c3c2)cc1NS(=O)(=O)c1ccc(F)cc1F | panel of 442 kinases (Homo sapiens, UniProt Q9UIK4) | 100 |
| Nc1cc(C(F)(F)F)c(-c2cc(N3CCOCC3)nc(N3CCOCC3)n2)cn1 | panel of 442 kinases (Homo sapiens, UniProt Q9UIK4) | 100 |
| FC(F)c1nc2ccccc2n1-c1nc(N2CCOCC2)nc(N2CCOCC2)n1 | panel of 442 kinases (Homo sapiens, UniProt Q9UIK4) | 100 |
| Cn1c(=O)n(-c2ccc(C(C)(C)C#N)cc2)c2c3cc(-c4cnc5ccccc5c4)ccc3ncc21 | panel of 442 kinases (Homo sapiens, UniProt Q9UIK4) | 97 |

---

remaining activity at 1 µM values for the compounds below.
TEST TARGET: panel of 442 kinases (Homo sapiens)
Construct: purchased Ambit Biosciences (scanMAXX KINOMEscan)
ASSAY OVERVIEW: biochemical
Type: binding
CONDITION NOTES: kinase ROS1; 1 µM; read-out: ROS1 (% of control at 1 µM)
RECORDED METRIC: remaining activity at 1 µM

| MOL | REPORTED MEASUREMENT |
| --- | --- |
| Cn1c(=O)n(-c2ccc(C(C)(C)C#N)cc2)c2c3cc(-c4cnc5ccccc5c4)ccc3ncc21 | 100% |
| COc1ncc(-c2ccc3nccc(-c4ccnnc4)c3c2)cc1NS(=O)(=O)c1ccc(F)cc1F | 100% |
| Nc1cc(C(F)(F)F)c(-c2cc(N3CCOCC3)nc(N3CCOCC3)n2)cn1 | 84% |
| FC(F)c1nc2ccccc2n1-c1nc(N2CCOCC2)nc(N2CCOCC2)n1 | 100% |

---

TEST TARGET: panel of 442 kinases (Homo sapiens, UniProt Q13705)
Construct: purchased Ambit Biosciences (scanMAXX KINOMEscan)
Sequence (Q13705 19-512): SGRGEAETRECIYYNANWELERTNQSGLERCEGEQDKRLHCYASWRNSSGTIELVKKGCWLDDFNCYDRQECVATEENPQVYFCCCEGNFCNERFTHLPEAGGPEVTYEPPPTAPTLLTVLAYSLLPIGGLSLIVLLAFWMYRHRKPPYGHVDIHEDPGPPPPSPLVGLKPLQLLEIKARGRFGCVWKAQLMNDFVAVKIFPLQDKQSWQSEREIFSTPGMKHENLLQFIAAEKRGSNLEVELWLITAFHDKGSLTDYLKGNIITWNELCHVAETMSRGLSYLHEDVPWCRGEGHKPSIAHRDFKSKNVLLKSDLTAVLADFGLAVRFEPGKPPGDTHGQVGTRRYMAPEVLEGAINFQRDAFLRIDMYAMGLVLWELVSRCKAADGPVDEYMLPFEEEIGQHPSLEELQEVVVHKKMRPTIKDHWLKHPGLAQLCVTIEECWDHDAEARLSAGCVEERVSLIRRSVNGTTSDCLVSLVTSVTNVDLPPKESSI
ASSAY OVERVIEW: biochemical
Format: binding
CONDITION NOTES: ACVR2B; 1 µM; read-out: % of control at 1 µM

| COMPOUND | remaining activity at 1 µM [%] |
| --- | --- |
| COc1ncc(-c2ccc3nccc(-c4ccnnc4)c3c2)cc1NS(=O)(=O)c1ccc(F)cc1F [Omipalisib] | 100 |
| Cn1c(=O)n(-c2ccc(C(C)(C)C#N)cc2)c2c3cc(-c4cnc5ccccc5c4)ccc3ncc21 [Dactolisib] | 85 |
| FC(F)c1nc2ccccc2n1-c1nc(N2CCOCC2)nc(N2CCOCC2)n1 [ZSTK474] | 89 |
| Nc1cc(C(F)(F)F)c(-c2cc(N3CCOCC3)nc(N3CCOCC3)n2)cn1 [Buparlisib] | 100 |

---

TEST TARGET: panel of 442 kinases (Homo sapiens, UniProt Q9UQM7)
Construct: purchased Ambit Biosciences (scanMAXX KINOMEscan)
Sequence (Q9UQM7 whole entry): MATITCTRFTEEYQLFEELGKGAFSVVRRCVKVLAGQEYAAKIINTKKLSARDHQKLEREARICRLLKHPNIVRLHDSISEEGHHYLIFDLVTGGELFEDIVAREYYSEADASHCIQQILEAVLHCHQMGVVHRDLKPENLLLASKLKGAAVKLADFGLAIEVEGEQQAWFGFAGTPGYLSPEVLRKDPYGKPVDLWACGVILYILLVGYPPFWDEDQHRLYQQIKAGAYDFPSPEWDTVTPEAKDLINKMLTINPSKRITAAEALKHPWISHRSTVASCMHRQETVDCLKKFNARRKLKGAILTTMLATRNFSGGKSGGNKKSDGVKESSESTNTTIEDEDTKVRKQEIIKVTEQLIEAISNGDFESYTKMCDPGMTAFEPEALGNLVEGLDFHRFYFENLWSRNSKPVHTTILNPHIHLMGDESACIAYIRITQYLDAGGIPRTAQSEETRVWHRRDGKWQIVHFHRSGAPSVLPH
ASSAY OVERVIEW: biochemical
Assay type: binding
CONDITION NOTES: CAMK2A; 1 µM; read-out: % of control at 1 µM
The entries below are paired with their reported remaining activity at 1 µM.

| MOL | remaining activity at 1 µM / % |
| --- | --- |
| Cn1c(=O)n(-c2ccc(C(C)(C)C#N)cc2)c2c3cc(-c4cnc5ccccc5c4)ccc3ncc21 | 90 |
| COc1ncc(-c2ccc3nccc(-c4ccnnc4)c3c2)cc1NS(=O)(=O)c1ccc(F)cc1F | 100 |
| FC(F)c1nc2ccccc2n1-c1nc(N2CCOCC2)nc(N2CCOCC2)n1 | 87 |
| Nc1cc(C(F)(F)F)c(-c2cc(N3CCOCC3)nc(N3CCOCC3)n2)cn1 | 100 |
